- Test method notes: Viability qHTS for spleen associated tyrosine kinase inhibitor (SYKi) drug resistant MV4-11 cells (AID 1963824); note: nearly all actives have a fitted effect of over 35% in size
- Measurement conditions: SYKi-resistant MV4-11 viability, CellTiter-Glo, 72 h; series mostly up to 45 µM
- Experimental: Department of Medicine, Hematology/Oncology University Hospital Frankfurt, Germany. Trials have shown promising clinical activity of the selective SYK inhibitor entospletinib in patients with high expressing HOXA9/MEIS1 acute leukemias. […] 7; Detection; Luminescence; ViewLux plate reader (PerkinElmer). […] 1. Quantitative high-throughput screening (qHTS) of small molecule compounds was conducted on drug resistant SYKi MV4-11 cell line. […] 7. Luminescence was measured on a ViewLux plate reader (PerkinElmer).
Inconclusive results are not listed. Active and inactive are the calls of the source. Calls come from the whole dose curve; as a rule, active = well fitted cell-killing curve with a large enough effect; inconclusive = small, poorly fitted or top-dose-only effect, or effect the other way; inactive = no such curve, though single readings can be large or run the other way.
Possible outcomes: 1.0 (active), 0.0 (inactive)

{"Compound": "CC1(CCOC2OC(CO)C(O)C(O)C2O)CCC23OC2(C1)C(O)CC1C(C)(C(=O)O)CCCC13C (centres undefined)", "Group": 0.0}
{"Compound": "O=C(/C=C/c1ccc(O)cc1)OC1[C@H](O)CC(O)(C(=O)O)C[C@H]1O (some centres undefined)", "Group": 0.0}
{"Compound": "CN1CCN(Cc2ccc(-c3cnc4[nH]cc(-c5ccc6[nH]ccc6c5)c4c3)cc2)CC1", "Group": 1.0}
{"Compound": "C/C=C1\\[C@H](OC2OC(COC3OC(CO)C(O)C(O)C3O)C(O)C(O)C2O)OC=C(C(=O)OC)[C@H]1CC(=O)OCCc1ccc(O)cc1 (some centres undefined)", "Group": 0.0}
{"Compound": "C=C1CCC2C(C)(C(=O)O)CCCC2(C)C1CC/C(C)=C\\CO (centres undefined)", "Group": 0.0}
{"Compound": "Cc1cc(F)c(C(=O)Nc2cccc(-c3nncn3C(C)C)n2)cc1-n1cnc(C2CC2)c1", "Group": 1.0}
{"Compound": "C=C1C(=O)O[C@@H]2C[C@@]3(C)CCCC(=C)[C@]3(O)C[C@H]12", "Group": 1.0}
{"Compound": "CC1CCC2C(C)(C)C(O)CCC2(C)C12Cc1c(O)cc3c(c1O2)CN=C3N (centres undefined)", "Group": 0.0}
{"Compound": "CCN(CC)CCNC(=O)c1cc(S(C)(=O)=O)ccc1OC", "Group": 0.0}

From: PubChem BioAssay (NCATS)
